# System: OVCAR-4 ovarian
# protocol: NCI tumour cell line growth inhibition, 48 h; in the data active = GI50 below about 0.43 µM; inactive = the rest
Please state which outcome applies, choosing from active, inactive

Solved entries:
{"compound": "COc1cc2cc(Oc3ccc(NC(=O)Nc4cccc(C(F)(F)F)c4)cc3)c(C)nc2cc1OCCN1CCCCC1", "group_label": "inactive"}
{"compound": "COC(=O)c1cnc(=O)n(C2CC(O)C(CO)O2)c1 (stereo unspecified)", "group_label": "inactive"}
{"compound": "Cc1cc(NC(=O)C2c3ccccc3C(=O)N(CC(C)C)C2c2cccs2)no1 (stereo unspecified)", "group_label": "inactive"}

Query :: Identify the outcome logged in this assay for the compound shown: O=C1/C(=C\c2ccc(Cl)cc2)CN(C(=S)Nc2ccccc2)C/C1=C\c1ccc(Cl)cc1
Result :: active

Query :: Fill in: this test's call for COc1ccc(N(C)c2nc(C)nc3ccccc23)cc1 is ___
Result :: active

Query :: In this assay, the call recorded for COc1cccc(NC(=O)c2sc3nc4c(cc3c2N)CCCC4)c1 was what?
Result :: inactive

Query :: Check the results log: what was the call for COc1cc2c3c(n(C)c(=O)c2cc1OC)-c1cc2c(cc1/C3=C\CCCCN)OCO2 ?
Result :: inactive

Query :: Could you please tell me the result logged for O=[N+]([O-])c1ccc(Sc2ncccn2)c([N+](=O)[O-])c1 in this assay?
Result :: inactive

Query :: For this compound, state the assay outcome: N#C/C(=C\c1c(-c2ccccc2)[nH]c2ccccc12)C(=O)c1ccc(Cl)cc1
Result :: inactive

Query :: Which outcome was assigned to CCOC(=O)CCC(NC(=O)c1ccc(N=Cc2nc3cc(C(F)(F)F)ccc3nc2-c2ccccc2)cc1)C(=O)OCC (stereo unspecified) in this test?
Result :: inactive

Query :: For this compound, state the assay outcome: O=C(Nc1ccncc1)C(=O)c1cn(S(=O)(=O)c2ccc(Br)cc2)c2ccccc12
Result :: inactive
